target: SARS-CoV-2 receptor-binding domain fused to hIgG1 Fc (SARS-CoV-2 (Wuhan/Victoria), UniProt P0DTC2 330-532); assay: SPR, trimer analyte, RBD ligand
Listing of recorded T1/2 by entry.
Write the value in h as a bare number.

Example entries and their recorded answers appear below.
T1/2 lookup needed for C5 trimer (VHH, also called trimeric C5 nanobody; C5-6GS-C5-6GS-C5) QVQLVESGGGSVQAGGSLTLSCVASGVTLGRHAIGWFRQAPGKERERVSCIRTFDGITSYVESTKGRFTISSNNAMNTVYLQMNSLKPEDTAVYFCALGVTAACSDNPYFWGQGTQVTVSSGSGSGSQVQLVESGGGSVQAGGSLTLSCVASGVTLGRHAIGWFRQAPGKERERVSCIRTFDGITSYVESTKGRFTISSNNAMNTVYLQMNSLKPEDTAVYFCALGVTAACSDNPYFWGQGTQVTVSSGSGSGSQVQLVESGGGSVQAGGSLTLSCVASGVTLGRHAIGWFRQAPGKERERVSCIRTFDGITSYVESTKGRFTISSNNAMNTVYLQMNSLKPEDTAVYFCALGVTAACSDNPYFWGQGTQVTVSS , thanks. 1.53

T1/2 lookup needed for A8 trimer (bispecific antibody) QVQLVESGGGLVQAGGSLRLSCAASGGTFSTAAMGWFRQAPGEERECVASIGWRGVRTWYADSVKGRFTISRDNPQNTVYLQMNNLKSGDTAVYYCAASVGNYGLPWAHFEYDFWGQGIQVTVSSGSGSGSQVQLVESGGGLVQAGGSLRLSCAASGGTFSTAAMGWFRQAPGEERECVASIGWRGVRTWYADSVKGRFTISRDNPQNTVYLQMNNLKSGDTAVYYCAASVGNYGLPWAHFEYDFWGQGIQVTVSSGSGSGSQVQLVESGGGLVQAGGSLRLSCAASGGTFSTAAMGWFRQAPGEERECVASIGWRGVRTWYADSVKGRFTISRDNPQNTVYLQMNNLKSGDTAVYYCAASVGNYGLPWAHFEYDFWGQGTQVTVSSKHHHHHH , thanks. 4.63

Could you now look at the following binder, please?
T1/2 lookup needed for C1 trimer (VHH) QVQLVESGGGLVQPGGSLRLSCAASGFTNDFYSIAWFRQAPGKEREGVSWLSVSDNTPTYVDSVKDRFTISRHNANNTVYLQMNMLKPEDTAIYYCAAGRFAGRDTWPSSYDYWGQGTQVTVSSGSGSGSQVQLVESGGGLVQPGGSLRLSCAASGFTNDFYSIAWFRQAPGKEREGVSWLSVSDNTPTYVDSVKDRFTISRHNANNTVYLQMNMLKPEDTAIYYCAAGRFAGRDTWPSSYDYWGQGTQVTVSSGSGSGSQVQLVESGGGLVQPGGSLRLSCAASGFTNDFYSIAWFRQAPGKEREGVSWLSVSDNTPTYVDSVKDRFTISRHNANNTVYLQMNMLKPEDTAIYYCAAGRFAGRDTWPSSYDYWGQGTQVTVSS , thanks. 4.03
